tested-on: T1, cynomolgus monkey CD8 alpha on primary cynomolgus CD8+ T cells (cynomolgus monkey, UniProt P01732 23-235 (human entry))
T1 construct: also called Cyno CD8alpha; cyno CD8A
assay-explanation: flow cytometry, cyno CD8+ T cells
readout-name: Cyno T-cell Binding 2 uM (MFI)

binder	unit-name	result-number
P283HR7P1368_F6 (designed binder, FN3 domain) LPAPKNLVVSRVTEDSARLSWTAPDAAFDSFGIGYIEWVHRGEAISLHVPGSERSYDLTGLKPGTEYVVAIVGVKGGEPSTPLGAPFTT	MFI	20600

[I] P283FR9P1366_H9 (designed binder, FN3 domain) LPAPKNLVVSRVTEDSARLSWTAPDAAFDSFEIAYPEWPVNGEAIVLTVPGSERSYDLTGLKPGTEYWVVIWGVKGGVNSYPLSAIFTT
[II] P283DR9P1364_H1 (designed binder, FN3 domain) LPAPKNLVVSRVTEDSARLSWTAPDAAFDSFQISYPEWPVHGEAIVLTVPGSERSYDLTGLKPGTEYWVIIWGVKGGRQSWPLSAIFTT
[III] P283HR7P1368_D1 (designed binder, FN3 domain) LPAPKNLVVSRVTEDSARLSWTAPDAAFDSFGISYYEWAPNGEAIQLSVPGSERSYDLTGLKPGTEYHVVIIGVKGGEPSHPLGAPFTT
[IV] P283DR9P1364_F2 (designed binder, FN3 domain) LPAPKNLVVSRVTEDSARLSWTAPDAAFDSFWIAYPEWPVPGEAIVLTVPGSERSYDLTGLKPGTEYFVIIQGVKGGFGSFPLSAIFTT
Arrange by Cyno T-cell Binding 2 uM (MFI), high to low. Lab note: record answer as labels in requested order.
IV, II, I, III
